src = paper PMC5836133

tested.target: GST-NbGlk1(82-244) (Nicotiana benthamiana)
Chain: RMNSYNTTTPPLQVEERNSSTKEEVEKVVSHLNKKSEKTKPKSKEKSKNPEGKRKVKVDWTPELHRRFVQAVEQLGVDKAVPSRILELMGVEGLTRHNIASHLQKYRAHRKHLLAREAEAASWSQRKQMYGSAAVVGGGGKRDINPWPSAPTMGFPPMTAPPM
measurement.description: protein-binding microarray; high values mean tight binding
condition.parameters: protein: recombinant; tags: GST (pTH6838); dsDNA, one strand shown
Over roughly 16,000 sequences, “e-score” has its median near -0.044; the highest 2% begin near 0.38. Shown is part of a subset that was picked to be rich in the highest values.
Each record is given 1.0 if its reported binding signal is strictly below 0.3 E-score. Records at or above 0.3 E-score are given 0.0.

   input_sequence  assigned_label
0        ACGGGAAT             0.0
1        ATCATGAT             1.0
2        ATCTTAGC             1.0
3        AAATCCCC             0.0
4        ATTATCTA             1.0

Find out if reported binding signal for ATCCATTG is less than 0.3 E-score
1.0

====

Consider the following sequences; for each one, report its binding signal.
tested.target: GST-NbGlk1(82-244) (Nicotiana benthamiana)
Chain: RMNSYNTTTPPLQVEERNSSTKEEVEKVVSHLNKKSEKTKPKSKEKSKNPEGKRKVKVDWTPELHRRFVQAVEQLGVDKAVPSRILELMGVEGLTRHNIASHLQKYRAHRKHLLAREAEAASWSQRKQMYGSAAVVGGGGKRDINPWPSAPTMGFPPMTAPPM
measurement.description: protein-binding microarray; high values mean tight binding
condition.parameters: protein: recombinant; tags: GST (pTH6838); dsDNA, one strand shown
Whole data set: some 16,000 sequences, median “e-score” near -0.044, cut for the highest 2% near 0.38. What follows is part of a selection rich in the highest values, with near analogues and random picks from the rest.
Numbers only, in E-score.

Completed entries (count: 3):
   input_sequence  assay_value
0        CAATATCC        0.337
1        ATCGAGAA        0.236
2        AAATATCT        0.407

For each listed entry, give its binding signal.
1. ATATCAAT
2. ATATCAAG

0.281
0.298

====

tested.target: GST-NbGlk1(82-244) (Nicotiana benthamiana)
Chain: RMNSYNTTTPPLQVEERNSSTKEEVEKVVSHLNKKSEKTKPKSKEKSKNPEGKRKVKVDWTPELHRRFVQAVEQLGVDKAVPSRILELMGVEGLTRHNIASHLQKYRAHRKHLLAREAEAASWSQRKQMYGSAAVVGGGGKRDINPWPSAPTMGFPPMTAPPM
measurement.description: protein-binding microarray; high values mean tight binding
condition.parameters: protein: recombinant; tags: GST (pTH6838); dsDNA, one strand shown
Over roughly 16,000 sequences, “e-score” has its median near -0.044; the highest 2% begin near 0.38. The sample as a whole holds a higher share of the highest values than the screen did.
experimental.readout: binding signal

Example entries and their recorded answers appear below.
In [3]: df
Out[3]:
   input_sequence    assay_value
0        ACCCAGAT  0.247 E-score
1        ACTTGGAT  0.263 E-score
2        AATCTACG   0.38 E-score
3        AATATTAT  0.211 E-score
4        ATATCTCA  0.389 E-score

Please supply binding signal for each of the following items, keeping them in order.
1. ATAATCTA
2. ATCTTATA
3. CACGAATC
4. AATGAGAT

1: 0.334 E-score; 2: 0.342 E-score; 3: 0.332 E-score; 4: 0.312 E-score

====

tested.target: GST-NbGlk1(82-244) (Nicotiana benthamiana)
Chain: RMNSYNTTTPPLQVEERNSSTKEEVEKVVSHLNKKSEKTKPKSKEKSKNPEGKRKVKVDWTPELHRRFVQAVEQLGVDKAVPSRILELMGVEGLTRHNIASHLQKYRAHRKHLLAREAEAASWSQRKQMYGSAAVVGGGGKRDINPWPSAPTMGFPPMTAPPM
measurement.description: protein-binding microarray; high values mean tight binding
condition.parameters: protein: recombinant; tags: GST (pTH6838); dsDNA, one strand shown
Whole data set: some 16,000 sequences, median “e-score” near -0.044, cut for the highest 2% near 0.38. The full list was thinned out, with the highest values kept by preference.
experimental.readout: binding signal (E-score)
Answers are plain numbers, in E-score.

Batch request: binding signal per item, same order as input.
1. ATTTGGTG
2. ATCCACAT

0.213
0.256

Give binding signal for all sequences that follow.
1. AATCCACC
2. ATATTGTG

1. 0.382
2. 0.235

====

tested.target: GST-NbGlk1(82-244) (Nicotiana benthamiana)
Chain: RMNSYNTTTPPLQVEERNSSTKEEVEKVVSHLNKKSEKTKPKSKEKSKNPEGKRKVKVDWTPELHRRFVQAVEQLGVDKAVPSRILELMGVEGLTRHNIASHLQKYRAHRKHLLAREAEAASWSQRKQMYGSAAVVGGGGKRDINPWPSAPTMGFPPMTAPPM
measurement.description: protein-binding microarray; high values mean tight binding
condition.parameters: protein: recombinant; tags: GST (pTH6838); dsDNA, one strand shown
The full ranking holds about 16,000 sequences; the median of “e-score” is about -0.044, and the highest 2% start at about 0.38. Only a selection was taken, and the highest values are over-represented in it overall.
experimental.readout: binding signal (E-score)
Answers are plain numbers, in E-score.

Field: example entries. Status: answers known.
   input_sequence                             tested_target  experimental_readout  unit_abbreviation  assay_value
0        AATCGGGT  GST-NbGlk1(82-244) (Nicotiana benthamiana)        binding signal            E-score        0.272
1        ATCTCCAT  GST-NbGlk1(82-244) (Nicotiana benthamiana)        binding signal            E-score        0.335
2        ATATCAAA  GST-NbGlk1(82-244) (Nicotiana benthamiana)        binding signal            E-score        0.228
3        AATCTGGT  GST-NbGlk1(82-244) (Nicotiana benthamiana)        binding signal            E-score        0.443

# map each sequence to its binding signal
1. ATTCTGGA
2. ATTCCACG
3. AGATCCAC
4. CAAGATCG

1. 0.248
2. 0.222
3. 0.287
4. 0.284

What does the data say about its binding signal? Entry: AATTTAGA
0.251

====

Would you mind telling me the reported binding signal of each entry?
tested.target: GST-NbGlk1(82-244) (Nicotiana benthamiana)
Chain: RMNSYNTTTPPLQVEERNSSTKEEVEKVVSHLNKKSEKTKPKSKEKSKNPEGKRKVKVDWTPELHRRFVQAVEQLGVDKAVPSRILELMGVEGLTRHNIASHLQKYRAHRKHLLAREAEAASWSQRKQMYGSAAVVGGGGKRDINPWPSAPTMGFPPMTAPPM
measurement.description: protein-binding microarray; high values mean tight binding
condition.parameters: protein: recombinant; tags: GST (pTH6838); dsDNA, one strand shown
In all, about 16,000 sequences were measured (“e-score”: median about -0.044, highest 2% from about 0.38 on). For the sample, the highest values were picked, then their nearest neighbours and some sequences at random.
Numbers only, in E-score.

Look over these answered cases.
>>> print(df.to_string())
   input_sequence  assay_value
0        ATATCGTC        0.328
1        ATCGCGTC        0.285
2        AAGAATCA        0.325
3        AAGATCTT        0.399
4        ATAATCGA        0.216

Hello, I would appreciate it if you could give binding signal for each entry below.
1. ATCTCTGC
2. ATATGCTA

1: 0.311; 2: 0.224

Please give binding signal for each item listed below.
1. AAATCTAG
2. ATCTCTTC
3. ACATGTGA
4. AATATTTC
5. ATCCTCAT
6. CAATCTAC
7. AATCTCTC
8. AAAATCGA

0.452
0.286
0.201
0.34
0.212
0.341
0.368
0.381

====

Provide the reported binding signal of each item.
tested.target: GST-NbGlk1(82-244) (Nicotiana benthamiana)
Chain: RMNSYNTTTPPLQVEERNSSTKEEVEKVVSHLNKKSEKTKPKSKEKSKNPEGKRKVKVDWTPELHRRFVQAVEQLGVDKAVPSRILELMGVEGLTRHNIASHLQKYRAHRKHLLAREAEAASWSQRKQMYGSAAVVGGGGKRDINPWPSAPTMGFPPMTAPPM
measurement.description: protein-binding microarray; NbGlk1 is a Golden2-like transcription factor of Nicotiana benthamiana; high values mean tight binding
condition.parameters: protein: recombinant; tags: GST (pTH6838); dsDNA, one strand shown
Whole data set: some 16,000 sequences, median “e-score” near -0.044, cut for the highest 2% near 0.38. The entries come from a sample that favours the highest values as a whole.
Give bare numbers, in E-score.

Field: example entries. Status: answers known.
>>> print(df.to_string())
   input_sequence  assay_value
0        AATCCTAC        0.343
1        ATATGAAA        0.266
2        CAAATATC        0.375

Give binding signal for each listed item.
1. AAGATATG
2. ATATTGCG
3. ATCCGCAT
4. AGAATATG
5. ATCACACA
6. ACGTGATC
7. CAAATATG

1. 0.352
2. 0.328
3. 0.272
4. 0.253
5. 0.274
6. 0.232
7. 0.212
